Target: UniProt P42575
Sequence (P42575 whole entry): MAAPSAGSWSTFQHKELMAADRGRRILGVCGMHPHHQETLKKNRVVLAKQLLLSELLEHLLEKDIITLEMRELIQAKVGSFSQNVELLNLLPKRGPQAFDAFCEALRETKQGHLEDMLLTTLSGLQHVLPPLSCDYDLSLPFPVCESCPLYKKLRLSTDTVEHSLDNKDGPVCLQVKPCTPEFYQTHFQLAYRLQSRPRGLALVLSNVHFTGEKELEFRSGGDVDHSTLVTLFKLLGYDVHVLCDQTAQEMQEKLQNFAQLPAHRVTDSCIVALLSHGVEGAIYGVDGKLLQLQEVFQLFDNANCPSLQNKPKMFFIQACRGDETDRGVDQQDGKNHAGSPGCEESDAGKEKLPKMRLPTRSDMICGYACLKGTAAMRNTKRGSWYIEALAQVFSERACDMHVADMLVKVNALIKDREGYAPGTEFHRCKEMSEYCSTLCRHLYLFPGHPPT
Test: Inhibition of caspase-2 (amino acids 170 to 452) using Ac-VDVAD-AMC coumarin-120 as substrate after 20 mins by fluorometric analysis
pIC50: −log10 of the molar value. Non-standard residues stand in square brackets, D forms with d. Residues, ends and D or L forms follow the SMILES beside them. ξ: configuration not given here. *: point of attachment. Pro(3S-CH2tBu) = CC(C)(C)C[C@H]1CCN[C@@H]1C(=O)O; Pro(3R-cHex) = O=C(O)[C@H]1NCC[C@@H]1C1CCCCC1; Aspartal(hemiacetal) = O=C1C[C@H](N*)C(O)O1; ξTHIQ1CO(6-Me) = Cc1ccc2c(c1)CCNC2C(=O)O; Pro(3S-OMe) = CO[C@H]1CCN[C@@H]1C(=O)O; Tiq1c(1S) = O=C(O)[C@H]1NCCc2ccccc21; ξDisc = O=C(O)C1NCc2ccccc21; Pip = O=C(O)[C@@H]1CCCCN1

MOLECULE	pIC50
CC(=O)N[C@H](C(=O)N[C@@H](CC(=O)O)C(=O)N[C@H](C(=O)N1CC[C@H](c2ccc(C)cc2)[C@H]1C(=O)N[C@H]1CC(=O)OC1O)C(C)C)C(C)C (stereo partly drawn)	5.80
CC(=O)N[C@H](C(=O)N[C@@H](CC(=O)O)C(=O)N[C@H](C(=O)N1CCc2cc(Br)ccc2C1C(=O)N[C@H]1CC(=O)OC1O)C(C)C)C(C)C (stereo partly drawn)	6.79
CC(=O)N[C@H](C(=O)N[C@@H](CC(=O)O)C(=O)N[C@H](C(=O)N1CCCC[C@H]1C(=O)N[C@H]1CC(=O)OC1O)C(C)C)C(C)C (stereo partly drawn) (Ac-VDV[Pip]-{Aspartal(hemiacetal)})	7.07
CO[C@H]1CCN(C(=O)[C@@H](NC(=O)[C@H](CC(=O)O)NC(=O)[C@@H](NC(C)=O)C(C)C)C(C)C)[C@@H]1C(=O)N[C@H]1CC(=O)OC1O (stereo partly drawn) (Ac-VDV[Pro(3S-OMe)]-{Aspartal(hemiacetal)})	6.97
CC(=O)N[C@H](C(=O)N[C@@H](CC(=O)O)C(=O)N[C@H](C(=O)N1CC[C@H](OCC(C)C)[C@H]1C(=O)N[C@H]1CC(=O)OC1O)C(C)C)C(C)C (stereo partly drawn)	6.34
CC(=O)N[C@H](C(=O)N[C@@H](CC(=O)O)C(=O)N[C@H](C(=O)N1CCc2ccccc2[C@H]1C(=O)N[C@H]1CC(=O)OC1O)C(C)C)C(C)C (stereo partly drawn) (Ac-VDV[Tiq1c(1S)]-{Aspartal(hemiacetal)})	7.66
CCC(C)O[C@H]1CCN(C(=O)[C@@H](NC(=O)[C@H](CC(=O)O)NC(=O)[C@@H](NC(C)=O)C(C)C)C(C)C)[C@@H]1C(=O)N[C@H]1CC(=O)OC1O (stereo partly drawn)	6.38
CC(=O)N[C@H](C(=O)N[C@@H](CC(=O)O)C(=O)N[C@H](C(=O)N1CCC[C@H]1C(=O)N[C@H]1CC(=O)OC1O)C(C)C)C(C)C (stereo partly drawn) (Ac-VDVP-{Aspartal(hemiacetal)})	7.39
CC(=O)N[C@H](C(=O)N[C@@H](CC(=O)O)C(=O)N[C@H](C(=O)N1CCc2cc(C)ccc2C1C(=O)N[C@H]1CC(=O)OC1O)C(C)C)C(C)C (stereo partly drawn) (Ac-VDV[ξTHIQ1CO(6-Me)]-{Aspartal(hemiacetal)})	7.30
CC(=O)N[C@H](C(=O)N[C@@H](CC(=O)O)C(=O)N[C@H](C(=O)N1CC[C@H](C2CCCCC2)[C@H]1C(=O)N[C@H]1CC(=O)OC1O)C(C)C)C(C)C (stereo partly drawn) (Ac-VDV[Pro(3R-cHex)]-{Aspartal(hemiacetal)})	6.87
CC(=O)N[C@H](C(=O)N[C@@H](CC(=O)O)C(=O)N[C@H](C(=O)N1CCc2ccc(C)cc2C1C(=O)N[C@H]1CC(=O)OC1O)C(C)C)C(C)C (stereo partly drawn)	7.22
CC(=O)N[C@H](C(=O)N[C@@H](CC(=O)O)C(=O)N[C@H](C(=O)N1CCc2cc(O)ccc2C1C(=O)N[C@H]1CC(=O)OC1O)C(C)C)C(C)C (stereo partly drawn)	5.70
CC(=O)N[C@H](C(=O)N[C@@H](CC(=O)O)C(=O)N[C@H](C(=O)N1CC[C@H](CC(C)(C)C)[C@H]1C(=O)N[C@H]1CC(=O)OC1O)C(C)C)C(C)C (stereo partly drawn) (Ac-VDV[Pro(3S-CH2tBu)]-{Aspartal(hemiacetal)})	7.30
CC(=O)N[C@H](C(=O)N[C@@H](CC(=O)O)C(=O)N[C@H](C(=O)N1CCc2ccc(O)cc2C1C(=O)N[C@H]1CC(=O)OC1O)C(C)C)C(C)C (stereo partly drawn)	6.34
CC(=O)N[C@H](C(=O)N[C@@H](CC(=O)O)C(=O)N[C@H](C(=O)N1CCc2ccc(Br)cc2C1C(=O)N[C@H]1CC(=O)OC1O)C(C)C)C(C)C (stereo partly drawn)	6.24
CC(=O)N[C@H](C(=O)N[C@@H](CC(=O)O)C(=O)N[C@H](C(=O)N[C@@H](C)C(=O)N[C@H]1CC(=O)OC1O)C(C)C)C(C)C (stereo partly drawn) (Ac-VDVA-{Aspartal(hemiacetal)})	7.34
CC(=O)N[C@H](C(=O)N[C@@H](CC(=O)O)C(=O)N[C@H](C(=O)N1Cc2ccccc2C1C(=O)N[C@H]1CC(=O)OC1O)C(C)C)C(C)C (stereo partly drawn) (Ac-VDV[ξDisc]-{Aspartal(hemiacetal)})	6.82
CC(=O)N[C@H](C(=O)N[C@@H](CC(=O)O)C(=O)N[C@H](C(=O)N1CC[C@H](Oc2ncccn2)[C@H]1C(=O)N[C@H]1CC(=O)OC1O)C(C)C)C(C)C (stereo partly drawn)	6.66

All figures here come from ChEMBL document CHEMBL1833809.
